Test: Solubility of P027 in different solvents at room temperature (visual, successive solvent additions)
Type: physicochemical
Conditions: organic solvent or mixture, thermodynamic from solid; Acetonitrile; solid was dissolved at 60° C., left at room temperature, no solid observed
Description: In order to plan the crystallization screening, […] table 6 using the following methodology (table 7): […] solvent and successive additions (initially 0.2 mL and finally 0.5 mL) of solvent until the solid was completely dissolved or up to a maximum of 8 mL were performed. After each solvent addition the suspension was vigorously stirred for 10-15 minutes and visually inspected to determine if the solid was completely dissolved.
Assay endpoint: solubility

In: Indicate the recorded solubility value for this molecule: Cc1cc(OCCN2CCOCC2)nn1-c1ccc2ccccc2c1.Cl
Out: 10 to 20 mg/mL
